Tested on: 922993-354-T-J3-PDC complex spheroid viability;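 further: spheroids exposed to the agents for one week; 100% = DMSO vehicle control wells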
assay_overview: Anticancer human tumor 922993-354-T-J3-PDC patient-derived endometrial carcinoma cell line growth inhibition [POLQ]
measurement_conditions: second compound 0.316 µM; first compound 0.1 µM; hits give low values
Collected viability, T/C values appear next to each entry.

compound	assay_system	data_value
COc1ccc([C@@H](O)c2cc(-c3ncnc4cc(N5CCOCC5)ccc34)c(F)cc2Cl)nn1 + Cc1cccc(N(C)C(=O)C2C(O)CCN2c2nc(C)cc(C(F)(F)F)c2C#N)c1	922993-354-T-J3-PDC complex spheroid viability	104%

Query: What value of measured viability, T/C is listed for CCCS(=O)(=O)Nc1ccc(F)c(C(=O)c2c[nH]c3ncc(-c4ccc(Cl)cc4)cc23)c1F + Cc1cccc(N(C)C(=O)C2C(O)CCN2c2nc(C)cc(C(F)(F)F)c2C#N)c1 ?
Response: 101%

Query: What value of measured viability, T/C is listed for COc1cccc(OCCCN)c1-c1cc(Nc2cnc(C#N)cn2)n[nH]1 + Cc1cccc(N(C)C(=O)C2C(O)CCN2c2nc(C)cc(C(F)(F)F)c2C#N)c1 ?
Response: 98%
